biological target: JAK3 (recombinant human kinase domain; h-jak3(810-1124)) (Homo sapiens, UniProt P52333); construct: h-jak3(810- 1124)-sf9-c; made in house; host or cells: Sf9 insect cells; assay: Determination of IC50 of Janus Kinase (JAK) inhibition: JAK3, radioactive end-point assay with 33P-ATP; format: biochemical; conditions: JAK3 kinase domain; ATP 1.5 uM, peptide 50 uM, 20 minutes, room temperature, 10% DMSO; read-out: Ic50 h-jak3(810-1124)-sf9-c:no additive
Sequence (P52333 810-1124): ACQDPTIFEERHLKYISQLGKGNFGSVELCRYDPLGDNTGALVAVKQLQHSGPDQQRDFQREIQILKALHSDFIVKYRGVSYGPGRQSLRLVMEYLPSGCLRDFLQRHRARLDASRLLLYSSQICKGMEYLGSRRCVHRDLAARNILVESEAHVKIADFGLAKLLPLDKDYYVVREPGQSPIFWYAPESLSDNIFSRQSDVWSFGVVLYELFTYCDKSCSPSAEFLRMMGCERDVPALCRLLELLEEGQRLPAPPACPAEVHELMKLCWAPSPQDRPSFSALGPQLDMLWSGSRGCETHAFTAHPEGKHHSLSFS
Field: label. Allowed values: 1.0 (IC50 < 3 nM) or 0.0 (IC50 >= 3 nM).

> print(dat)
                                   compound  assigned.category
1  CC(C)c1cnc2[nH]cc(C(=O)N[C@@H](C)C(C)(C)O)c2n1 [Example I-5]                0.0
2  C[C@H](NC(=O)c1c[nH]c2ncc(C3CC3)nc12)C1CCCCC1 [Example I-32]                0.0
3  C[C@H](NC(=O)c1c[nH]c2ncc(C3CC3)nc12)[C@](C)(O)C(F)(F)F [Example I-63]                0.0
4  CCNC(=O)c1c[nH]c2ncc(Oc3cccc(C(C)(C)C)c3)nc12 [Example I-247]                0.0
5  COCC(C)NC(=O)c1ccc(-c2cnc3[nH]cc(C(=O)N[C@@H](C)C(C)(C)C)c3n2)s1 (some centres unmarked) [Example I-214]                1.0
6  C[C@H](NC(=O)c1c[nH]c2ncc(-c3ccc(C(=O)NC4CCOCC4)s3)nc12)C(C)(C)C [Example I-225]                1.0
7  CCNC(=O)c1c[nH]c2ncc(Oc3cccc4ccccc34)nc12 [Example I-261]                0.0

----------
Examples of compounds with documented IC50 follow.
target: JAK3 (recombinant human kinase domain; h-jak3(810-1124)) (Homo sapiens, UniProt P52333); construct: h-jak3(810- 1124)-sf9-c; made in house; host or cells: Sf9 insect cells; experiment: Determination of IC50 of Janus Kinase (JAK) inhibition: JAK3, radioactive end-point assay with 33P-ATP; format: biochemical; details: JAK3 kinase domain; ATP 1.5 uM, peptide 50 uM, 20 minutes, room temperature, 10% DMSO; read-out: Ic50 h-jak3(810-1124)-sf9-c:no additive
reported_endpoint: IC50 (nM)

> print(dat)
                  compound.structure.string                               system.name  reported.endpoint  unit.info  test.result
1  CC(C)(C)[C@H](CO)NC(=O)c1c[nH]c2ncc(C3CC3)nc12  JAK3 (recombinant human kinase domain; h-jak3(810-1124)) (Homo sapiens, UniProt P52333)               IC50         nM         11.1
2  C[C@H](NC(=O)c1c[nH]c2ncc(-c3ccc(C(=O)NCc4cccc(C#N)c4)s3)nc12)C(C)(C)C  JAK3 (recombinant human kinase domain; h-jak3(810-1124)) (Homo sapiens, UniProt P52333)               IC50         nM         10.6
3  CC(C)NC(=O)c1c[nH]c2ncc(Oc3ccc4cc[nH]c4c3)nc12  JAK3 (recombinant human kinase domain; h-jak3(810-1124)) (Homo sapiens, UniProt P52333)               IC50         nM         29.3
4  CNC(=O)CNc1cnc2[nH]cc(C(=O)NCC(C)(C)CO)c2n1  JAK3 (recombinant human kinase domain; h-jak3(810-1124)) (Homo sapiens, UniProt P52333)               IC50         nM          459
5  CC[C@@H](C)NC(=O)c1c[nH]c2ncc(Oc3ccc(F)cc3F)nc12  JAK3 (recombinant human kinase domain; h-jak3(810-1124)) (Homo sapiens, UniProt P52333)               IC50         nM          190
6  CC(C)NC(=O)c1c[nH]c2ncc(Oc3ccc4c(c3)[C@H](N)CC4)nc12  JAK3 (recombinant human kinase domain; h-jak3(810-1124)) (Homo sapiens, UniProt P52333)               IC50         nM          138
7      CCNC(=O)c1c[nH]c2ncc(Oc3ccccc3C)nc12  JAK3 (recombinant human kinase domain; h-jak3(810-1124)) (Homo sapiens, UniProt P52333)               IC50         nM         2740
8  CC(C)NC(=O)c1c[nH]c2ncc(Oc3cccc(C(C)C)c3)nc12  JAK3 (recombinant human kinase domain; h-jak3(810-1124)) (Homo sapiens, UniProt P52333)               IC50         nM          980

----------
target: JAK3 (recombinant human kinase domain; h-jak3(810-1124)) (Homo sapiens); construct: h-jak3(810- 1124)-sf9-c; made in house; host or cells: Sf9 insect cells; experiment: Determination of IC50 of Janus Kinase (JAK) inhibition: JAK3, radioactive end-point assay with 33P-ATP; format: biochemical; conditions: JAK3 kinase domain; ATP 1.5 uM, peptide 50 uM, 20 minutes, room temperature, 10% DMSO; read-out: Ic50 h-jak3(810-1124)-sf9-c:no additive
pIC50: −log10 of the molar value.
reported_endpoint: pIC50

> print(dat)
                                    compound  test.result
 1  C[C@@H](NC(=O)c1c[nH]c2ncc(-c3ccccn3)nc12)C(C)(C)O [Example I-112]         7.06
 2  CCNC(=O)c1c[nH]c2ncc(Oc3ccc4c(c3)[C@H](NS(C)(=O)=O)CC4)nc12 [Example I-270]         6.13
 3  N#CCC(NC(=O)c1c[nH]c2ncc(C3CC3)nc12)C1CC1 (centres unmarked) [Example I-106]         7.83
 4  COC(C)(C)CNC(=O)c1c[nH]c2ncc(C3CC3)nc12 [Example I-50]         8.04
 5  C[C@@H](NC(=O)c1c[nH]c2ncc(C3CC3)nc12)C1(C#N)CCCCC1 [Example I-117]         7.57
 6  C[C@H](NC(=O)c1c[nH]c2ncc(C3CC3)nc12)[C@@](C)(O)CC1CC1 [Example I-38]         6.94
 7  C[C@H](NC(=O)c1c[nH]c2ncc(-c3cnn(C)c3)nc12)C(C)(C)C#N [Example I-139]         9.26
 8  Cc1csc(CNC(=O)c2ccc(-c3cnc4[nH]cc(C(=O)N[C@@H](C)C(C)(C)C)c4n3)s2)c1 [Example I-192]         9.40
 9  CC(C)NC(=O)c1c[nH]c2ncc(Oc3ccc4c(c3)[C@H](NC=O)CC4)nc12 [Example I-301]         6.93
10  C[C@H](NC(=O)c1c[nH]c2ncc(C3CC3)nc12)C(C)(C)C(F)(F)F [Example I-54]         8.26
11  CC[C@H](C)NC(=O)c1c[nH]c2ncc(Oc3ccccc3)nc12 [Example I-121]         7.23
12  C[C@@H](NC(=O)c1c[nH]c2ncc(C3CC3)nc12)c1ccccc1 [Example I-66]         7.30
13  C[C@@H](NC(=O)c1c[nH]c2ncc(C3CC3)nc12)C(C)(C)C [Example I-62]         8.13
14  CC(C)(C)[C@@H](CC#N)NC(=O)c1c[nH]c2ncc(C3CC3)nc12 [Example I-76]         6.88
15  C[C@H](NC(=O)c1c[nH]c2ncc(Oc3ccccc3)nc12)C(C)(C)O [Example I-128]         6.68
16  C[C@H](NC(=O)c1c[nH]c2ncc(-c3ccc(C(=O)NC4CCOCC4)s3)nc12)C(C)(C)C#N [Example I-223]         9.04
17  C[C@H](NC(=O)c1c[nH]c2ncc(C3CC3)nc12)C1(C#N)CCCCC1 [Example I-118]         6.82

----------
Examples of compounds with documented IC50 follow.
target: JAK3 (recombinant human kinase domain; h-jak3(810-1124)) (Homo sapiens); construct: h-jak3(810- 1124)-sf9-c; made in house; host or cells: Sf9 insect cells; assay: Determination of IC50 of Janus Kinase (JAK) inhibition: JAK3, radioactive end-point assay with 33P-ATP; format: biochemical; conditions: JAK3 kinase domain; ATP 1.5 uM, peptide 50 uM, 20 minutes, room temperature, 10% DMSO; read-out: Ic50 h-jak3(810-1124)-sf9-c:no additive
reported_endpoint: IC50 (nM)

> print(dat)
                                    compound  reported.endpoint  test.result
 1  N#CCCCNC(=O)c1c[nH]c2ncc(C3CC3)nc12 [Example I-33]               IC50          493
 2  C[C@H](NC(=O)c1c[nH]c2ncc(-c3cnn(C)c3)nc12)C(C)(C)C [Example I-141]               IC50         0.19
 3  CON(C)C(=O)c1ccc(-c2cnc3[nH]cc(C(=O)N[C@@H](C)C(C)(C)C)c3n2)s1 [Example I-196]               IC50         0.47
 4  C[C@H](NC(=O)c1c[nH]c2ncc(-c3ccc(C(=O)N[C@H](C)C4CC4)s3)nc12)C(C)(C)C [Example I-162]               IC50         0.32
 5  CCNC(=O)c1c[nH]c2ncc(Oc3cccc(CC)c3)nc12 [Example I-249]               IC50         1590
 6  C[C@H](NC(=O)c1c[nH]c2ncc(-c3ccc(C(=O)N4CCC(C(=O)O)CC4)s3)nc12)C(C)(C)C [Example I-182]               IC50         0.32
 7  C[C@@H](CO)NC(=O)c1c[nH]c2ncc(C3CC3)nc12 [Example I-57]               IC50          217
 8  CCn1cc(-c2cnc3[nH]cc(C(=O)N[C@@H](C)C4(O)CCCC4)c3n2)cn1 [Example I-138]               IC50         5.01
 9  CC(C)(C#N)C(NC(=O)c1c[nH]c2ncc(C3CC3)nc12)C1CC1 (stereo not shown) [Example I-81]               IC50           16
10  CC(C)NC(=O)c1c[nH]c2ncc(Oc3ccc4c(c3)[C@H](NC(=O)C(C)(C)C)CC4)nc12 [Example I-285]               IC50          234
11  CC(C)(CO)NC(=O)c1c[nH]c2ncc(C3CC3)nc12 [Example I-45]               IC50          208
12  C[C@H](CO)NC(=O)c1ccc(-c2cnc3[nH]cc(C(=O)N[C@@H](C)C(C)(C)C)c3n2)s1 [Example I-169]               IC50         0.29
13  CC(C)NC(=O)c1c[nH]c2ncc(Oc3ccc4c(c3)[C@H](NC(=O)C3CC3)CC4)nc12 [Example I-284]               IC50           50
14  CC(=O)N[C@@H]1CCc2cc(Oc3cnc4[nH]cc(C(=O)N[C@@H](C)C(C)(C)C)c4n3)ccc21 [Example I-291]               IC50           37
15  C[C@H](NC(=O)c1c[nH]c2ncc(-c3ccc(C(=O)Nc4ccccc4)s3)nc12)C(C)(C)C [Example I-201]               IC50         0.57
16  CC(C)(CNC(=O)c1c[nH]c2ncc(C3CC3)nc12)CS(C)(=O)=O [Example I-98]               IC50         11.1
